System: Epidermal growth factor receptor (Homo sapiens), P00533 [T790M]
Sequence (P00533 whole entry T790M): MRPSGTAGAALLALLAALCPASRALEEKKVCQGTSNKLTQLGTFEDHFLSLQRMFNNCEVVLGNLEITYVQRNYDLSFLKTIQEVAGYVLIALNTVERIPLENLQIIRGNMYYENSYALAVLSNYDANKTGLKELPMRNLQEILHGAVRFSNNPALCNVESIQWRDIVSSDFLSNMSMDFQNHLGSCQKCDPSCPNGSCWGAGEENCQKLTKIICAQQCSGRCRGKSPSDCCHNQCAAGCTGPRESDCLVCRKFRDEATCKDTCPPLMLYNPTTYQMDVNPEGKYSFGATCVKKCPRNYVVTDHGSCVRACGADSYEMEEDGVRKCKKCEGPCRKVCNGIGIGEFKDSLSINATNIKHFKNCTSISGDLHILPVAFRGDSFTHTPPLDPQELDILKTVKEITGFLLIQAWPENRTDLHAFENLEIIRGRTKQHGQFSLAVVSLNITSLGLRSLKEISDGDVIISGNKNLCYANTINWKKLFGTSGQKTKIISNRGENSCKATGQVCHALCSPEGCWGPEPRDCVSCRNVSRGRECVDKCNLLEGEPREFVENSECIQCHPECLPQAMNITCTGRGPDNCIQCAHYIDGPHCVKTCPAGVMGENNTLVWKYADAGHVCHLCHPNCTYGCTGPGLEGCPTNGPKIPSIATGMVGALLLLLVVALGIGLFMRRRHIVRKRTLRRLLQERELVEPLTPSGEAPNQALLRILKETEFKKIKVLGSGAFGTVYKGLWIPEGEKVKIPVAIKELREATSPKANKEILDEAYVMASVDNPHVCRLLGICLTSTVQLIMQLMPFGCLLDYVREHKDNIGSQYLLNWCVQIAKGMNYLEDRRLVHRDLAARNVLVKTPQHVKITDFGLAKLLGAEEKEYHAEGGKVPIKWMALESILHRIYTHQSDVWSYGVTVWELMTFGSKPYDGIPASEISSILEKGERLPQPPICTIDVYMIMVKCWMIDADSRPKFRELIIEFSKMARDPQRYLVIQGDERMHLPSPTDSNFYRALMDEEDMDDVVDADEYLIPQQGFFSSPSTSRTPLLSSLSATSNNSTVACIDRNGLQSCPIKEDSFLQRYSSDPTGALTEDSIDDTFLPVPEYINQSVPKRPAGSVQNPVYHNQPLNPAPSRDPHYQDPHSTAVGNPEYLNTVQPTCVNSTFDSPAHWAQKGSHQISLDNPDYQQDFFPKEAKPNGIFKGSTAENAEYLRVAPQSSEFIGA
cond: at 1 µM
quantityMeasured: inhibition
Express the reported value numerically, then name its unit.

Exercise: Endpoint output: inhibition of CN1CCC(n2cnc(-c3ccc(F)cc3)c2-c2ccnc(NCCO)n2)CC1 . Value?
Key: 4.06%

Exercise: Entry COc1ccc2ncn(-c3cc(O[C@H](C)c4ccccc4C(F)(F)F)c(C(N)=O)s3)c2c1 please
Key: -1.39%

Exercise: Moving on to COc1cc(N2CCN(C(C)C)CC2)ccc1Nc1nc(Nc2cccc(F)c2C(=O)O)c2cc[nH]c2n1
Key: 24.9%

Exercise: And then OCCCNc1nccc(-c2c(-c3ccc(F)cc3)nn3cc(C(F)(F)F)ccc23)n1 , what is it?
Key: -0.33%

Exercise: Another compound to look at: CS(=O)(=O)CCNCc1ccc(-c2ccc3ncnc(Nc4ccc(OCc5cccc(C(F)(F)F)c5)cc4)c3c2)o1
Key: 1.6%

Exercise: Also COc1cc(N2CCN(C(C)C)CC2)ccc1Nc1nc(Nc2cccc3ncccc23)c2cc[nH]c2n1 ?
Key: 10.3%

Exercise: And what about the compound CCS(=O)(=O)c1ccc(OC)c(Nc2ncc(-c3cccc(C(C)=O)c3)o2)c1 ?
Key: 4.71%

Exercise: Lookup CC1=C(C(=O)Nc2ccc3[nH]ncc3c2)C(c2ccc(F)cc2)N=C(c2ccc(C(F)(F)F)nc2)N1 (centres undefined)
Key: 0.81%

Exercise: Also Fc1ccc(Nc2nccc(-c3c(-c4ccc(C(F)(F)F)cc4)nn4ncccc34)n2)cc1F , if possible.
Key: 0.77%

----------
testSystem: Dual specificity protein kinase CLK3 (Homo sapiens) (UniProt P49761);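 also: each value is the mean inhibition of CLK3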
Sequence (P49761 whole entry, looked up): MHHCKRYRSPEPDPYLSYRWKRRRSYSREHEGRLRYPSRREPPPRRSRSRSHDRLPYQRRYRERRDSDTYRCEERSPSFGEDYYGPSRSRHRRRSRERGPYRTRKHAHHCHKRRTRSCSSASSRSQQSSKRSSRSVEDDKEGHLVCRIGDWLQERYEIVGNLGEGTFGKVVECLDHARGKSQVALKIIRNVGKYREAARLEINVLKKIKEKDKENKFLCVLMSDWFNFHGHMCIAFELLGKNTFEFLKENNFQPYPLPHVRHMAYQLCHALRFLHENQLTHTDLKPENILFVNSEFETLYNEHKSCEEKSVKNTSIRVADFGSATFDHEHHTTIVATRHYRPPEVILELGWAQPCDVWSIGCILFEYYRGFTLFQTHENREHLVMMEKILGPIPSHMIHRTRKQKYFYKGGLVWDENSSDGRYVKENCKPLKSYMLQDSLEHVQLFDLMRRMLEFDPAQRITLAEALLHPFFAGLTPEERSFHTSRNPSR
cond: at 1 µM
Quick reference for inhibition among some compounds
Write it as a number; the unit % goes unstated.

CS(=O)(=O)CCNCc1ccc(-c2ccc3ncnc(Nc4ccc(OCc5ccccc5)cc4)c3c2)o1; 0.48
COc1c(C(N)=O)cc(-c2ccc(Cl)cc2)cc1-c1ccc(S(N)(=O)=O)cc1; 0.31
CN(C)CCNC(=O)Nc1ccc(N(C)c2ccnc(Nc3ccc(CS(C)(=O)=O)cc3)n2)cc1; 2.89
O=C(O[C@H]1CN[C@H](C#Cc2cc3ncnc(Nc4ccc(OCc5cccc(F)c5)c(Cl)c4)c3s2)C1)N1CCOCC1; 2.04
COc1cccc(Nc2nccc(-c3cnn4ncccc34)n2)c1; 65.3
CCOc1ccc2c(-c3ccnc(Nc4cc(OC)cc(C(F)(F)F)c4)n3)cnn2n1; 21.8
FC(F)(F)CNc1nccc(-c2cnn3ncccc23)n1; 2.91
COc1ccccc1-c1cc(/C=C2\C(=O)Nc3ncc(Br)cc32)cc(Br)c1O; 9.88

Exercise: Missing value: inhibition, Dual specificity protein kinase CLK3 (Homo sapiens) (UniProt P49761), entry CC1=C(C(=O)Nc2ccc3[nH]ncc3c2)C(c2ccc(F)cc2)N=C(c2ccc(C(F)(F)F)nc2)N1 (stereo not given) . Fill in?
Key: 2.08

Exercise: // repeat for Fc1ccc(Nc2nccc(-c3c(-c4ccc(C(F)(F)F)cc4)nn4ncccc34)n2)cc1F and report
Key: 4.71

Exercise: Repeat with Cc1cc(O)cc(C)c1/C=C/c1cncc(C(=O)OC(C)(C)C)c1
Key: 6.2

Exercise: Next: COC(=O)Nc1nc2cc(Oc3ccc(NC(=O)Nc4ccccc4)cc3)ccc2[nH]1
Key: 2

----------
Listed molecules paired with reported inhibition
testSystem: Rho-associated protein kinase 2 (Homo sapiens) (UniProt O75116);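 also: values are averaged inhibition readings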
Sequence (O75116 whole entry, looked up): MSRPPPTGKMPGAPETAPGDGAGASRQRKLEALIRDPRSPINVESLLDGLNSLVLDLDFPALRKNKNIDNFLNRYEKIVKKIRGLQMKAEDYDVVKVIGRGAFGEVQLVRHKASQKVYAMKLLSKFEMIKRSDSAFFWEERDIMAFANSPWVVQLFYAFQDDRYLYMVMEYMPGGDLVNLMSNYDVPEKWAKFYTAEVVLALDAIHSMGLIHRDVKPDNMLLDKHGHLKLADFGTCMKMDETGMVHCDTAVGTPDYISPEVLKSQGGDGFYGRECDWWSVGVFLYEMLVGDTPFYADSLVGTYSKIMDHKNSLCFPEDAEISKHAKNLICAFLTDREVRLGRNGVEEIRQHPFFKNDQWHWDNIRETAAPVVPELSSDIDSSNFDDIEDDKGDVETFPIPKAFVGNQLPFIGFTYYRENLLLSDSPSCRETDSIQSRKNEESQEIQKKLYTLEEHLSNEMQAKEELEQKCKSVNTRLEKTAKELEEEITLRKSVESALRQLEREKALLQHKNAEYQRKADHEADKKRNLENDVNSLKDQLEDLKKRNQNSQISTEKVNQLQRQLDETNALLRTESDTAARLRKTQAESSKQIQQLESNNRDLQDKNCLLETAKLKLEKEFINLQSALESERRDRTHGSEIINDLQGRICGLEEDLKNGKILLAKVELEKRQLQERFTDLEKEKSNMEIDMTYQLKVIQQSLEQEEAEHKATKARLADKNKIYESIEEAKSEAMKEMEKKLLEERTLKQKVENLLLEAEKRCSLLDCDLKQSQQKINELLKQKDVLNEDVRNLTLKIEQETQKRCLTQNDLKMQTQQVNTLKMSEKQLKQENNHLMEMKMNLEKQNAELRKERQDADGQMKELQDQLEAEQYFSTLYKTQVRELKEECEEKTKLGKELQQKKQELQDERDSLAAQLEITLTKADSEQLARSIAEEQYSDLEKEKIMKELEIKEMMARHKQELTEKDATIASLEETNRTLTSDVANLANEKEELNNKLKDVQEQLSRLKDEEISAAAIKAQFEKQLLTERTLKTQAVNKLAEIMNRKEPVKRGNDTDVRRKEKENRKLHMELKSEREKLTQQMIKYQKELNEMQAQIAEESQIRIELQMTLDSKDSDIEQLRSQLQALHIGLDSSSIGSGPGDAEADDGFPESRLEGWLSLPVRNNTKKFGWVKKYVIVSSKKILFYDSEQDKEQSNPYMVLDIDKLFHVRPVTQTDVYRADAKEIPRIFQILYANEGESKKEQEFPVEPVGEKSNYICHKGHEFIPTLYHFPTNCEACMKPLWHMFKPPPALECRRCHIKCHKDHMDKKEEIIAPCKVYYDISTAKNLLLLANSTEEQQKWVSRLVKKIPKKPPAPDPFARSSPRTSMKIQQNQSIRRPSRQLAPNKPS
cond: at 0.1 µM
Report the figure in % without appending any unit label.

Sample answers from the record:
COc1c(C(N)=O)cc(-c2ccc(Cl)cc2)cc1-c1ccc(S(N)(=O)=O)cc1; 2.99
CS(=O)(=O)Nc1ccc(-c2cc(-c3ccccc3)cc(C(N)=O)c2N)cc1; 0.41
CC1=C(C(=O)Nc2ccc3[nH]nc(C)c3c2)C(c2ccc(C(F)(F)F)cc2)CC(=O)N1 (stereo not given); 70.3
N#Cc1ccc2c(-c3ccnc(NC4CC4)n3)c(-c3ccc(F)cc3)nn2c1; 0.99
CS(=O)(=O)CCNCc1ccoc1-c1ccc2ncnc(Nc3ccc(OCc4ccccc4)cc3)c2c1; -1.1

Exercise: Please give the measured inhibition for this molecule: COc1cc(Nc2ncc(-c3ccccc3)o2)cc(OC)c1
Key: 3.77

Exercise: Then what about the molecule COc1cc(N2CCN(C(C)C)CC2)ccc1Nc1nc(Nc2cccc3ncccc23)c2cc[nH]c2n1 ?
Key: 0.02

----------
testSystem: Phosphatidylinositol 4,5-bisphosphate 3-kinase catalytic subunit delta isoform (Homo sapiens) (UniProt O00329);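 also: reported values are mean percent inhibition of PI3K-delta activity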
Sequence (O00329 whole entry, canonical isoform): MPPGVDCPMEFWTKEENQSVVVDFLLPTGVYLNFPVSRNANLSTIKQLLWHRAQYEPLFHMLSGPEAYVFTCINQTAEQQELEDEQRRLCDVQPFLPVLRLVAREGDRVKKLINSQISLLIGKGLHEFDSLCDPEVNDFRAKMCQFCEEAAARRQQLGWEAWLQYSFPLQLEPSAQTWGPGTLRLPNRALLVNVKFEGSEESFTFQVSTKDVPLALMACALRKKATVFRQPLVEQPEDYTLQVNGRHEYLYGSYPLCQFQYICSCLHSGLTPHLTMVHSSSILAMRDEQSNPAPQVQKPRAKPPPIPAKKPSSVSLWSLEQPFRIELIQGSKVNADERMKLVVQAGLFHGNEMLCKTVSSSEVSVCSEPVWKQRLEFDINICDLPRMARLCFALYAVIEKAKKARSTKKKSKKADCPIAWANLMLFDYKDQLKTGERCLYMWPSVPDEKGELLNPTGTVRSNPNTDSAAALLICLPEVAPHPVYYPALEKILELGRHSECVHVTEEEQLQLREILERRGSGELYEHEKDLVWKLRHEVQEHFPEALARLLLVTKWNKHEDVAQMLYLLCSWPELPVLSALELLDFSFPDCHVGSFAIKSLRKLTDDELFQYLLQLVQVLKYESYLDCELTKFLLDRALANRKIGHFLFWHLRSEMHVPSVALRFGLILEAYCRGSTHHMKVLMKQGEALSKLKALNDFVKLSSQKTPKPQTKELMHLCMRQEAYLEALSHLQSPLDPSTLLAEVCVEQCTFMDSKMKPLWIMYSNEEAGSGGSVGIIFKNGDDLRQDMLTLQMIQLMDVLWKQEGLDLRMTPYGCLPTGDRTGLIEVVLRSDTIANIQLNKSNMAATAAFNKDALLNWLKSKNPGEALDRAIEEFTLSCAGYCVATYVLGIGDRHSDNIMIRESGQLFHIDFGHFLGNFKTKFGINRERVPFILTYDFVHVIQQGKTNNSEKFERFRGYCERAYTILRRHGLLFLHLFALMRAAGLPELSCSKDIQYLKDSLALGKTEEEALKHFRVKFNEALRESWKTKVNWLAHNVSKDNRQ
cond: at 1 µM
Recorded inhibition for the following compounds
Respond with the bare value in %.

COc1cc(N2CCN(C(C)C)CC2)ccc1Nc1nc(Nc2cccc3ncccc23)c2cc[nH]c2n1; 4.18
Cn1c(-c2nonc2N)nc2cnccc21; 1.72
CNC(=O)c1sc(-n2cnc3cc(OC)c(OC)cc32)cc1OCc1ccccc1C(F)(F)F; 6.41
COc1cccc(Nc2nccc(-c3cnn4ncccc34)n2)c1; 19.1
CCOc1ccc2c(-c3ccnc(Nc4cc(OC)cc(C(F)(F)F)c4)n3)cnn2n1; 10.2
OCCCNc1nccc(-c2c(-c3ccc(F)cc3)nn3cc(C(F)(F)F)ccc23)n1; 4.87

Exercise: Please give the measured inhibition for this compound: N#Cc1cccc(Nc2ncc(-c3ccccc3)o2)c1
Key: -0.04

Exercise: Same question for CC1=C(C(=O)Nc2ccc3[nH]ncc3c2)C(c2ccc(F)cc2)N=C(c2ccc(C(F)(F)F)nc2)N1 (stereo not given) please.
Key: 4.49

Exercise: Note, next up: CCN1CCC(C(=O)Nc2n[nH]c3nnc(-c4cccc(F)c4F)cc23)CC1
Key: -0.47

Exercise: Now try COC(=O)Nc1nc2cc(Oc3ccc(NC(=O)Nc4ccccc4)cc3)ccc2[nH]1 .
Key: 0.14

----------
System: Epidermal growth factor receptor (Homo sapiens), P00533 [L861Q]
cond: at 0.1 µM
quantityMeasured: inhibition

Use these answered entries as a reference point.
O=C(O[C@H]1CN[C@H](C#Cc2cc3ncnc(Nc4ccc5c(ccn5Cc5cc(F)ccc5F)c4)c3s2)C1)N1CCOCC1; 22.6%
CC(C)c1ccc(-c2cc(-c3c[nH]nc3-c3ccccn3)ccn2)cc1; 0.09%
O=C1Nc2ccccc2/C1=C1\CCc2cc(O)ccc21; 2.16%
CC1=C(C(=O)Nc2ccc3[nH]nc(C)c3c2)C(c2ccc(C(F)(F)F)cc2)CC(=O)N1 (stereo not given); 1.79%

Field: next molecule
Exercise: Fill in the recorded inhibition for this molecule, with Epidermal growth factor receptor (Homo sapiens), P00533 [L861Q] as test system: COc1ccc(-c2nn3ncccc3c2-c2ccnc(Nc3ccc(F)c(F)c3)n2)cc1
Key: 3.55%

----------
testSystem: Mitogen-activated protein kinase kinase kinase kinase 2 (Homo sapiens) (UniProt Q12851);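 also: reported value is a mean of MAP4K2 inhibition at 1 µM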
Sequence (whole entry): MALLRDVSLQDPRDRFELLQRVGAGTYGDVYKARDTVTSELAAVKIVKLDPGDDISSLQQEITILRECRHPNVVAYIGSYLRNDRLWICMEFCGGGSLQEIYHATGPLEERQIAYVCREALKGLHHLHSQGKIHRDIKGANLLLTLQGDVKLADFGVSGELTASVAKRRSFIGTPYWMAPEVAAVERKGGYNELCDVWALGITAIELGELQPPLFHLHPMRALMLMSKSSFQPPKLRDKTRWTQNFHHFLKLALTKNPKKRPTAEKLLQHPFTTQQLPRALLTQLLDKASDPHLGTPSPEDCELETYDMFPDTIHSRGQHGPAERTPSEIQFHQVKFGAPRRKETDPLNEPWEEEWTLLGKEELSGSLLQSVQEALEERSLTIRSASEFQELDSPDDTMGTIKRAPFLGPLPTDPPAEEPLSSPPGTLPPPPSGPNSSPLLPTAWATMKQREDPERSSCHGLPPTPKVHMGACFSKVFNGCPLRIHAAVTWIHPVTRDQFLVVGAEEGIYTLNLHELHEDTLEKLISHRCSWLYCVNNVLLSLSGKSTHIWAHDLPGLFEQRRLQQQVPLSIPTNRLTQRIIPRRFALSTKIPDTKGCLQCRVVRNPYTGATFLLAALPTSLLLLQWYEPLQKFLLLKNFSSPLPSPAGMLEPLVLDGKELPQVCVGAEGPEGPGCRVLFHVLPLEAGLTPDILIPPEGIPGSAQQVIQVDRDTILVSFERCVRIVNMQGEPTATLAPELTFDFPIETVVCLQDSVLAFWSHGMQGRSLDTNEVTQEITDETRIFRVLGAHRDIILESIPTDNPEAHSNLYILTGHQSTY
cond: at 1 µM
just bin them by inhibition: b0: < 2%; b1: ≥ 2% and < 4%; b2: ≥ 4%

Worked examples, 10 compounds total:
COc1cc(N2CCN(C(C)C)CC2)ccc1Nc1nc(Nc2cccc(F)c2C(=O)O)c2cc[nH]c2n1; b1
CCS(=O)(=O)c1ccc(OC)c(Nc2ncc(-c3cccc(F)c3)o2)c1; b2
CS(=O)(=O)Nc1ccc(-c2cc(-c3ccccc3)cc(C(N)=O)c2N)cc1; b0
CCOc1ccc2c(-c3ccnc(Nc4cc(OC)cc(C(F)(F)F)c4)n3)cnn2n1; b1
OCCCNc1nccc(-c2c(-c3ccc(F)cc3)nn3cc(C(F)(F)F)ccc23)n1; b1
NC(=O)c1ccc2c(-c3ccnc(NCCCO)n3)c(-c3ccc(F)cc3)nn2c1; b2
CS(=O)(=O)CCNCc1ccoc1-c1ccc2ncnc(Nc3ccc(OCc4ccccc4)cc3)c2c1; b0
COc1cccc(Nc2nccc(-c3cnn4ncccc34)n2)c1; b2
c1cnn2ncc(-c3ccnc(NCCCN4CCOCC4)n3)c2c1; b0
CS(=O)(=O)Nc1ccc(-c2ccc3c(NC(=O)C4CC4)n[nH]c3c2)cc1; b2

Exercise: Returns: class label. Input: CCS(=O)(=O)c1ccc(OC)c(Nc2ncc(-c3cccc(C(C)=O)c3)o2)c1
Key: b1

Exercise: Can you handle CNC(=O)c1cncc(/C=C/c2ccccc2C)c1 next?
Key: b1

Exercise: Then this compound: CCN1CCC(C(=O)Nc2n[nH]c3nnc(-c4cccc(F)c4F)cc23)CC1
Key: b1

Exercise: Try CC1=C(C(=O)Nc2ccc3[nH]ncc3c2)C(c2ccc(F)cc2)N=C(c2ccc(C(F)(F)F)nc2)N1 (stereo not given) next.
Key: b1

Exercise: Request: O=C(O[C@H]1CN[C@H](C#Cc2cc3ncnc(Nc4ccc(OCc5cccc(F)c5)c(Cl)c4)c3s2)C1)N1CCOCC1
Key: b0

Exercise: Similarly, N#Cc1ccc2c(-c3ccnc(NC4CC4)n3)c(-c3ccc(F)cc3)nn2c1 ?
Key: b1

Exercise: Try this compound next: NS(=O)(=O)c1ccc(N/N=C2\C(=O)Nc3cccc(CCc4ccncc4)c32)cc1
Key: b1

Exercise: Record: Cc1cc(O)cc(C)c1/C=C/c1cncc(C(N)=O)c1
Key: b2
